// data source = patent US11795460B2

- Tested on: TTR
- assayText: TTR editing in primary cyno hepatocytes electroporated with Spy Cas9 protein and sgRNAs (Tables 14, 15)
- Assay type: cell-based, cynomolgus monkey
- settings: Table 14; primary cyno hepatocytes electroporated with Spy Cas9 protein (RNP) and sgRNAs
- Protocol: Primary liver hepatocytes. Primary human liver hepatocytes (PHH) and primary cynomolgus liver hepatocytes (PCH) (Gibco) were cultured per the manufacturer's protocol (Invitrogen, protocol 11.28.2012). […] Cells were counted and plated on Bio-coat collagen I coated 96-well plates (ThermoFisher, Cat. 877272) at a density of 33,000 cells/well for human or 60,000 cells/well for cyno (or 65,000 cells/well when assaying effects on TTR protein, described further below). […]
Strand notation (5' to 3'): a small letter for the sugar, then the base; units joined by * are phosphorothioate-linked, units joined directly phosphodiester-linked; [ ] holds rarer units or linkages, { } end groups; capitals alone tell only the bases. m = 2'-O-methyl; r = 2'-OH (RNA)
propertyLabel: Avg % Deletion (%)
Enter your answer as a number in %; do not include the unit.

Lookup: Given the molecule G000490: TTR sgRNA modified sequence, Human, SEQ ID No. 97; guide sequence of CR003366 (nucleic acid) guide: mA*mA*mA*rUrArGrArCrArCrCrArArArUrCrUrUrArCrGrUrUrUrUrArGrAmGmCmUmAmGmAmAmAmUmAmGmCrArArGrUrUrArArArArUrArArGrGrCrUrArGrUrCrCrGrUrUrArUrCrAmAmCmUmUmGmAmAmAmAmAmGmUmGmGmCmAmCmCmGmAmGmUmCmGmGmUmGmCmU*mU*mU*mU , what is its reported Avg % Deletion?
Found: 7.27

Lookup: Follow-up item: G000481: TTR sgRNA modified sequence, Human, SEQ ID No. 88; guide sequence of CR003345 (nucleic acid) guide: mU*mC*mU*rArGrArArCrUrUrUrGrArCrCrArUrCrArGrGrUrUrUrUrArGrAmGmCmUmAmGmAmAmAmUmAmGmCrArArGrUrUrArArArArUrArArGrGrCrUrArGrUrCrCrGrUrUrArUrCrAmAmCmUmUmGmAmAmAmAmAmGmUmGmGmCmAmCmCmGmAmGmUmCmGmGmUmGmCmU*mU*mU*mU
Found: 35.50

Lookup: Next molecule: G000499: TTR sgRNA modified sequence, Human, SEQ ID No. 106; guide sequence of CR005303 (nucleic acid) guide: mU*mG*mA*rArUrCrCrArArGrUrGrUrCrCrUrCrUrGrArGrUrUrUrUrArGrAmGmCmUmAmGmAmAmAmUmAmGmCrArArGrUrUrArArArArUrArArGrGrCrUrArGrUrCrCrGrUrUrArUrCrAmAmCmUmUmGmAmAmAmAmAmGmUmGmGmCmAmCmCmGmAmGmUmCmGmGmUmGmCmU*mU*mU*mU
Found: 1.43

Lookup: Thanks! And G000500: TTR sgRNA modified sequence, Human, SEQ ID No. 107; guide sequence of CR003337 (nucleic acid) guide: mC*mC*mA*rGrUrCrCrArGrCrArArGrGrCrArGrArGrGrGrUrUrUrUrArGrAmGmCmUmAmGmAmAmAmUmAmGmCrArArGrUrUrArArArArUrArArGrGrCrUrArGrUrCrCrGrUrUrArUrCrAmAmCmUmUmGmAmAmAmAmAmGmUmGmGmCmAmCmCmGmAmGmUmCmGmGmUmGmCmU*mU*mU*mU ?
Found: 2.63

Lookup: Now give it for G000482: TTR sgRNA modified sequence, Human, SEQ ID No. 89; guide sequence of CR003365 (nucleic acid) guide: mU*mG*mU*rArGrArArGrGrGrArUrArUrArCrArArArGrGrUrUrUrUrArGrAmGmCmUmAmGmAmAmAmUmAmGmCrArArGrUrUrArArArArUrArArGrGrCrUrArGrUrCrCrGrUrUrArUrCrAmAmCmUmUmGmAmAmAmAmAmGmUmGmGmCmAmCmCmGmAmGmUmCmGmGmUmGmCmU*mU*mU*mU too.
Found: 20.03

Lookup: G000491: TTR sgRNA modified sequence, Human, SEQ ID No. 98; guide sequence of CR003338 (nucleic acid) guide: mA*mU*mA*rCrCrArGrUrCrCrArGrCrArArGrGrCrArGrGrUrUrUrUrArGrAmGmCmUmAmGmAmAmAmUmAmGmCrArArGrUrUrArArArArUrArArGrGrCrUrArGrUrCrCrGrUrUrArUrCrAmAmCmUmUmGmAmAmAmAmAmGmUmGmGmCmAmCmCmGmAmGmUmCmGmGmUmGmCmU*mU*mU*mU , same question.
Found: 1.90
